tested on: NCI-H2009; test: relative viability (nuclei count vs DMSO), 5 days (fraction); higher = more cells survive; conditions: first compound 0.01 µM
Metric name: relative viability
Answer as a number with no unit attached.

Here is how some compounds turned out for relative viability.
O=c1cc(N2CCOCC2)oc2c(-c3cccc4c3sc3ccccc34)cccc12 + C[C@@H](Oc1cc(-c2cnn(C3CCNCC3)c2)cnc1N)c1c(Cl)ccc(F)c1Cl [Crizotinib] (partner 1 µM) = 1.03
O=c1cc(N2CCOCC2)oc2c(-c3cccc4c3sc3ccccc34)cccc12 + O=C(c1cc(Cc2n[nH]c(=O)c3ccccc23)ccc1F)N1CCN(C(=O)C2CC2)CC1 [Olaparib] (partner 8 µM) = 0.718
CCN(CC)CCCCNc1ncc2cc(-c3cc(OC)cc(OC)c3)c(NC(=O)NC(C)(C)C)nc2n1 + CC1(C)CCC(c2ccc(Cl)cc2)=C(CN2CCN(c3ccc(C(=O)NS(=O)(=O)c4ccc(N[C@H](CCN5CCOCC5)CSc5ccccc5)c(S(=O)(=O)C(F)(F)F)c4)cc3)CC2)C1 [Navitoclax] (partner 0.5 µM) = 1.25
CCN(CC)CCCCNc1ncc2cc(-c3cc(OC)cc(OC)c3)c(NC(=O)NC(C)(C)C)nc2n1 + O=C(c1cc(Cc2n[nH]c(=O)c3ccccc23)ccc1F)N1CCN(C(=O)C2CC2)CC1 [Olaparib] (partner 8 µM) = 0.828
CCN(CC)CCCCNc1ncc2cc(-c3cc(OC)cc(OC)c3)c(NC(=O)NC(C)(C)C)nc2n1 + CCNC(=O)c1noc(-c2cc(C(C)C)c(O)cc2O)c1-c1ccc(CN2CCOCC2)cc1 [Luminespib] (partner 0.01 µM) = 1.15
CCN(CC)CCCCNc1ncc2cc(-c3cc(OC)cc(OC)c3)c(NC(=O)NC(C)(C)C)nc2n1 + CC(=O)c1c(C)c2cnc(Nc3ccc(N4CCNCC4)cn3)nc2n(C2CCCC2)c1=O [Palbociclib] (partner 0.5 µM) = 0.211
CCN(CC)CCCCNc1ncc2cc(-c3cc(OC)cc(OC)c3)c(NC(=O)NC(C)(C)C)nc2n1 + Cc1nc(Nc2ncc(C(=O)Nc3c(C)cccc3Cl)s2)cc(N2CCN(CCO)CC2)n1 [Dasatinib] (partner 0.075 µM) = 0.299
CCN(CC)CCCCNc1ncc2cc(-c3cc(OC)cc(OC)c3)c(NC(=O)NC(C)(C)C)nc2n1 + CS(=O)(=O)N1CCN(Cc2cc3nc(-c4cccc5[nH]ncc45)nc(N4CCOCC4)c3s2)CC1 [Pictilisib] (partner 1 µM) = 0.727
O=c1cc(N2CCOCC2)oc2c(-c3cccc4c3sc3ccccc34)cccc12 + Cc1cc(Nc2cc(N3CCN(C)CC3)nc(Sc3ccc(NC(=O)C4CC4)cc3)n2)n[nH]1 [Tozasertib] (partner 0.1 µM) = 0.747

Consider the additional compound presented here.
Which value of relative viability has been reported for O=c1cc(N2CCOCC2)oc2c(-c3cccc4c3sc3ccccc34)cccc12 + Cc1nc(Nc2ncc(C(=O)Nc3c(C)cccc3Cl)s2)cc(N2CCN(CCO)CC2)n1 [Dasatinib] (partner 0.075 µM) in the records?
0.317

====

Parameter relative viability: see the listing below.
system: PC-3 [JPC-3]; assay: relative viability (nuclei count vs DMSO), 5 days (fraction); higher = more cells survive; settings: first compound 0.3162 µM
Lab note: record just the number, no unit beside it.

Below, each entry is followed by its recorded relative viability result.
CCN(CC)CCCCNc1ncc2cc(-c3cc(OC)cc(OC)c3)c(NC(=O)NC(C)(C)C)nc2n1 + N=C(N)NC(=N)NCCc1ccccc1 [Phenformin] (partner 250 µM) = 0.498
O=c1cc(N2CCOCC2)oc2c(-c3cccc4c3sc3ccccc34)cccc12 + CC1(C)CCC(c2ccc(Cl)cc2)=C(CN2CCN(c3ccc(C(=O)NS(=O)(=O)c4ccc(N[C@H](CCN5CCOCC5)CSc5ccccc5)c(S(=O)(=O)C(F)(F)F)c4)cc3)CC2)C1 [Navitoclax] (partner 0.5 µM) = 0.783
O=c1cc(N2CCOCC2)oc2c(-c3cccc4c3sc3ccccc34)cccc12 + CC(C)C[C@H](NC(=O)[C@H](Cc1ccccc1)NC(=O)c1cnccn1)B(O)O [Bortezomib] (partner 0.002 µM) = 0.749
CCN(CC)CCCCNc1ncc2cc(-c3cc(OC)cc(OC)c3)c(NC(=O)NC(C)(C)C)nc2n1 + CS(=O)(=O)N1CCN(Cc2cc3nc(-c4cccc5[nH]ncc45)nc(N4CCOCC4)c3s2)CC1 [Pictilisib] (partner 1 µM) = 0.815
O=c1cc(N2CCOCC2)oc2c(-c3cccc4c3sc3ccccc34)cccc12 + N=C(N)NC(=N)NCCc1ccccc1 [Phenformin] (partner 250 µM) = 0.496

Let us examine a further case.
What measured relative viability goes with CCN(CC)CCCCNc1ncc2cc(-c3cc(OC)cc(OC)c3)c(NC(=O)NC(C)(C)C)nc2n1 + COc1cccc2cc(-c3nc([C@H]4CC[C@H](C(=O)O)CC4)n4ncnc(N)c34)[nH]c12 [OSI-027] (partner 0.5 µM) ?
1.02
